Biological target: T1, human GIP receptor (human) (UniProt P48546)
T1 sequence (looked up): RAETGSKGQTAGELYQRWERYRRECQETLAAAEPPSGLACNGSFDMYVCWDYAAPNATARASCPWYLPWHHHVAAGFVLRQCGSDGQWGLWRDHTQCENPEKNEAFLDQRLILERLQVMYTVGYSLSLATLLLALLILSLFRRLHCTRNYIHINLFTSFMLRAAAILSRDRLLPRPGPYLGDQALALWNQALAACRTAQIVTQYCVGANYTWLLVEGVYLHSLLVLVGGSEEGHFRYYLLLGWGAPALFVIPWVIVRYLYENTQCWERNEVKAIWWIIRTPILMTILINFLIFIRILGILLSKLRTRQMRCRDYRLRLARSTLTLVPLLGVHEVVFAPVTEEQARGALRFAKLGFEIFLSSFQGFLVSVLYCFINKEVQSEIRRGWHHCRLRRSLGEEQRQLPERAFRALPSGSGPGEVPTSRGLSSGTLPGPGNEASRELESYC
Experiment: cell-based or functional assay
In this section, each of the binders is paired with its reported cAMP EC50.

> print(dat)
                                     binder   property     result
1  IP380 (Fc fusion) YSEGTFTSDYSKLLEEEAVRLFIEFLLAGGGGGGSGGGGSGGGGSGGGGSATHTCPPC  cAMP EC50  0.0084 nM

What cAMP EC50 value was documented for this binder, GGGGGSGGGGSGGGGSGGGGSATHTCPPC (Fc fusion, not shown: a dimerising Fc or GST) [IP288] ?
2300 nM

What cAMP EC50 value was documented for this binder, IP373 (Fc fusion) YSEGTHTSDFSKLLERQAIDEFIAWLLKGGAAAGGSGSTASSGSGSATGGGGAATHTCPPC ?
0.0054 nM

What cAMP EC50 value was documented for this binder, IP334 (Fc fusion) YSEGTFTSDYSIALAAAAQQDFVNWLLKGGGGGGGSGGGGSGGGGSGGGGSGGGGSGGGGSA ?
0.029 nM

Sourced from patent US20160185837A1
